# Test system: NCI-H226
# test_method_notes: NCI tumour cell line growth inhibition, 48 h
Active and inactive are the calls of the source. No stated cut-off is given here; in the data, active = GI50 up to about 1.1 µM and inactive = higher.
GI50 by entry:

See these solved cases before continuing.
molecule: CCCC(=O)OC1CC(n2cc(F)c(=O)[nH]c2=O)OC1CO (configuration not stated)
GI50: > 10 µM (inactive)
//
molecule: Cc1ccccc1-n1c(=O)nc2n(-c3ccc(C(C)(C)C)cc3)c3ccccc3cc-2c1=O
GI50: 18.8 µM (inactive)
//
molecule: CC(=O)O[C@H]1C(=O)[C@@]2(C)C(C(OC(=O)c3ccccc3)[C@]3(O)CC(OC(=O)C(O)C(NC(=O)c4cccc(Cl)c4)c4ccccc4)C(C)=C1C3(C)C)[C@]1(OC(C)=O)CO[C@@H]1C[C@@H]2O (some centres not stated)
GI50: > 10 µM (inactive)
//
molecule: CCOC(=O)/C=C(/C(=O)OCC)n1cc(C)c(=O)n(Cc2cnnn2CCCCOC(C)=O)c1=O
GI50: > 100 µM (inactive)
//
molecule: COc1ccc(/C=C2\CNC/C(=C\c3ccc(OC)cc3)C2=O)cc1
GI50: > 100 µM (inactive)

Query O=C(O)CCC(=O)c1ccc2sc3ccccc3c2c1 yields GI50 of > 100 µM (inactive)

Query O=C1c2c(O)cccc2C(C2OC(CO)C(O)C(O)C2O)c2cc(CO)cc(O)c21 (configuration not stated) yields GI50 of > 100 µM (inactive)

Query COC(=O)CCC(C)[C@H]1CCC2C3C(C[C@H](OC(C)=O)[C@@]21C)[C@@]1(C)CCC2(C[C@H]1C[C@H]3OC(C)=O)OOC1(CCC(C(C)(C)C)CC1)OO2 (some centres not stated) yields GI50 of 59 µM (inactive)

Query CCC(=O)N(c1ccccc1)C(C)CN1CCC(O)(c2cccc(C(F)(F)F)c2)CC1 (configuration not stated) yields GI50 of 30.2 µM (inactive)

Query CCOC(OCC)[C@@H]1C[C@@H]2N(O[C@H](OC3CCCC3(c3ccccc3)c3ccccc3)[C@H](OC(C)=O)[C@@]2(CC)Cc2ccc(OC)c(OC)c2)O1 (some centres not stated) yields GI50 of > 100 µM (inactive)

----------
# Test system: M14
# test_method_notes: NCI tumour cell line growth inhibition, 48 h
Calls of active or inactive are those of the source. Rule as the data show it: active = GI50 up to about 1.1 µM and inactive = higher.
// allowed return values: active, inactive

Please review the following examples before continuing.
compound: Cc1ccc(S(=O)(=O)NC(=O)Nc2ccc(C(=O)O)c(O)c2)cc1
label_value: inactive
//
compound: CCN(CC)CCn1c(C(C)(C)C)nc2ccccc21
label_value: inactive
//
compound: Cc1cccc(N2CCN(S(=O)(=O)c3ccc(Cl)cc3)C2=N)c1C
label_value: inactive
//
compound: O=C(O)CCC(NC(=O)c1ccc(CNc2nc3ccccc3nc2C(=O)O)cc1)C(=O)O (stereo unspecified)
label_value: inactive

query: Query: recorded result category for CC1(c2cccs2)CC(c2cccs2)=C(C#N)C(=C(C#N)C#N)N1 (stereo unspecified) in this test
result: inactive

query: Query: recorded result category for COC(=O)C1c2cc3c(cc2C(OC2OC(C)C(OC)C(C)(OC)C2OC)CC1(C)O)C(=O)c1c(O)cc2c(c1C3=O)OC1OC2(C)C(O)C([N+](C)(C)[O-])C1O (stereo unspecified) in this test
result: active

query: Query: recorded result category for COc1ccc(-c2cc(-c3ccc(Nc4ccnc5cc(Cl)ccc45)cc3)nc(N)c2C#N)c2ccccc12 in this test
result: inactive

query: Query: recorded result category for CN1C(c2ccccc2)CC(=NO)CC1c1ccccc1 (stereo unspecified) in this test
result: inactive

query: Query: recorded result category for CCCC(=O)c1ccc2c(ccc(=O)n2C)c1 in this test
result: inactive

query: Query: recorded result category for CCN(CCCl)CCNc1c2ccccc2nc2ccc(OC)cc12 in this test
result: inactive

query: Query: recorded result category for COc1cc2oc(=O)ccc2cc1CC=C(C)C [SUBEROSIN] in this test
result: inactive

query: Query: recorded result category for COc1ccccc1C#C/C=C\C#Cc1ccccc1C#N in this test
result: inactive

query: Query: recorded result category for O=C(NC1CCCCCC1)C1C(=O)N(C2CCCCCC2)C(=O)/C1=N\O (stereo unspecified) in this test
result: inactive

query: Query: recorded result category for C[C@@]1(CBr)C[C@@](C)(/C=C/Cl)[C@@H](Cl)C[C@H]1Cl in this test
result: inactive

query: Query: recorded result category for COc1cc(/C=C(\OC(C)=O)c2ccc3c(c2)OCO3)cc(OC)c1OC in this test
result: inactive

query: Query: recorded result category for O=C(C1OC1c1ccc(O)cc1)C12CC3CC(CC(C3)C1)C2 (stereo unspecified) in this test
result: inactive

query: Query: recorded result category for CC(=O)/C(=C\NC(N)=S)C(=O)Nc1ccccc1C in this test
result: inactive

query: Query: recorded result category for c1ccc(-c2cc(-c3cc(-c4ccccc4)no3)on2)cc1 in this test
result: inactive

query: Query: recorded result category for COc1ccccc1N1C(=O)CC(=O)N(C(=O)CCCCCCCCC(=O)N2C(=O)CC(=O)N(c3ccccc3OC)C2=S)C1=S in this test
result: inactive

query: Query: recorded result category for O=C1C(Br)=CC2(C=C1Br)CCNC1=C2C2=NCCc3c[nH]c(c32)C1=O in this test
result: active

query: Query: recorded result category for Cc1c(C#N)c(=N)oc2ccccc12 in this test
result: inactive

Cited source for all entries: ChEMBL document CHEMBL1201862
